// values below are reported IC50
assay: Inhibition of West Nile virus NS2B-NS3 protease using 2-Abz-Gly-Leu-Lys-Arg-Gly-Gly-[…]-Tyr-NH2 as substrate preincubated with protein for 15 mins followed by substrate addition measured for 15 mins by FRET assay
Your answer is read as nM, so omit the unit and give the number.

# item-smiles, measured-result
records = [
    ("N=C(N)NCCC[C@H](NC(=O)c1ccccc1)C(=O)N[C@@H](CCCCN)C(=O)N[C@@H](C(N)=O)c1ccc(OCc2c(Cl)cccc2Cl)cc1", 493),
]

Return value of IC50 for input COc1cccc(COc2ccc([C@@H](NC(=O)[C@H](CCCCN)NC(=O)[C@H](CCCNC(=N)N)NC(=O)c3ccc(-c4cccs4)s3)C(N)=O)cc2)c1 , no commentary.
557

Return value of IC50 for input N=C(N)NCCC[C@H](NC(=O)c1cc2sccc2s1)C(=O)N[C@@H](CCCCN)C(=O)N[C@@H](C(N)=O)c1ccc(OCc2c(Cl)cccc2Cl)cc1 , no commentary.
785

Return value of IC50 for input N=C(N)NCCC[C@H](NC(=O)c1ccc(Cl)s1)C(=O)N[C@@H](CCCCN)C(=O)N[C@@H](C(N)=O)c1ccc(OCc2ccccc2)cc1 , no commentary.
457

Data origin, for the record: ChEMBL document CHEMBL3739314
